Where do the numbers come from? From ChEMBL document CHEMBL4196183.

study system: Urotensin-2 receptor (Homo sapiens)
assay name: Selectivity index, change in deltalog(Tau/KA) for agonist activity at human UT receptor expressed in HEK293 cells co-expressing G12-polycistronic BRET biosensor assessed as induction of G12 activation by luminescence detection based BRET assay to deltalog(Tau/KA) for agonist activity at human UT receptor expressed in HEK293 cells co-expressing Gq-polycistronic BRET biosensor assessed as induction of Gq activation by luminescence detection based BRET assay
Format: functional, cell-based
measured property: deltalog(Tau/KA)

Reference set (5 entries):
# cpd smiles, value observed
measured = [
    ("CC(C)[C@H](NC(=O)[C@@H]1CSSC[C@H](NC(=O)[C@H](C)N)C(=O)N[C@@H](Cc2ccc(C#Cc3ccccc3)cc2)C(=O)N[C@@H](Cc2c[nH]c3ccccc23)C(=O)N[C@@H](CCCCN)C(=O)N[C@@H](Cc2ccc(O)cc2)C(=O)N1)C(=O)O", 0.24),
    ("CC(C)[C@H](NC(=O)[C@@H]1CSSC[C@H](NC(=O)[C@H](C)N)C(=O)N[C@@H](Cc2ccccc2)C(=O)N[C@@H](Cc2c[nH]c3ccccc23)C(=O)N[C@@H](CCCCN)C(=O)N[C@@H](Cc2ccc(O)cc2)C(=O)N1)C(=O)O", 0),
    ("CC(C)[C@H](NC(=O)[C@@H]1CSSC[C@H](NC(=O)[C@H](C)N)C(=O)N[C@@H](Cc2ccc(-c3ccccc3)cc2)C(=O)N[C@@H](Cc2c[nH]c3ccccc23)C(=O)N[C@@H](CCCCN)C(=O)N[C@@H](Cc2ccc(O)cc2)C(=O)N1)C(=O)O", 0.15),
    ("CC(C)[C@H](NC(=O)[C@@H]1CSSC[C@H](NC(=O)[C@@H](C)N)C(=O)N[C@@H](Cc2ccc(C#Cc3ccccc3)cc2)C(=O)N[C@@H](Cc2c[nH]c3ccccc23)C(=O)N[C@@H](CCCCN)C(=O)N[C@@H](Cc2ccc(O)cc2)C(=O)N1)C(=O)O", 1.08),
    ("CC(C)[C@H](NC(=O)[C@@H]1CSSC[C@H](NC(=O)[C@@H](C)N)C(=O)N[C@@H](Cc2ccc(-c3ccccc3)cc2)C(=O)N[C@@H](Cc2c[nH]c3ccccc23)C(=O)N[C@@H](CCCCN)C(=O)N[C@@H](Cc2ccc(O)cc2)C(=O)N1)C(=O)O", 1.7),
]

I: CC(C)[C@H](NC(=O)[C@@H]1CSSC[C@H](NC(=O)[C@H](N)CC(=O)O)C(=O)N[C@@H](Cc2ccc(I)cc2)C(=O)N[C@@H](Cc2c[nH]c3ccccc23)C(=O)N[C@@H](CCCCN)C(=O)N[C@@H](Cc2ccc(O)cc2)C(=O)N1)C(=O)O
II: CC(C)[C@H](NC(=O)[C@@H]1CSSC[C@H](NC(=O)[C@H](C)N)C(=O)N[C@@H](Cc2ccc(I)cc2)C(=O)N[C@@H](Cc2c[nH]c3ccccc23)C(=O)N[C@@H](CCCCN)C(=O)N[C@@H](Cc2ccc(O)cc2)C(=O)N1)C(=O)O
Problem: Hey, which is lower on measured deltalog(Tau/KA), I or II ? Indicate which entry you chose by stating its label.
Solution: II

A: CC(C)[C@H](NC(=O)[C@@H]1CSSC[C@H](NC(=O)[C@@H](C)N)C(=O)N[C@@H](Cc2ccc(I)cc2)C(=O)N[C@@H](Cc2c[nH]c3ccccc23)C(=O)N[C@@H](CCCCN)C(=O)N[C@@H](Cc2ccc(O)cc2)C(=O)N1)C(=O)O
B: CC(C)[C@H](NC(=O)[C@@H]1CSSC[C@H](NC(=O)[C@@H](N)CC(=O)O)C(=O)N[C@@H](Cc2ccc(I)cc2)C(=O)N[C@@H](Cc2c[nH]c3ccccc23)C(=O)N[C@@H](CCCCN)C(=O)N[C@@H](Cc2ccc(O)cc2)C(=O)N1)C(=O)O
Problem: Endpoint returns the identifier whose deltalog(Tau/KA) is numerically larger, either A or B . Indicate which entry you chose by stating its label.
Solution: A
